# study.system: T1, DLG3_2, Q92796
# T1 sequence (Q92796 221-321, limits assumed, looked up): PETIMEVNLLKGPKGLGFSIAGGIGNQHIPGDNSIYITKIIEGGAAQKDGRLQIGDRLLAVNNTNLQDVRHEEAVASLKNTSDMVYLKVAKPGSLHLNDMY
# test.protocol: holdup assay
# Parameters: key: below the threshold = too weak to quantify, mostly under pKd 3.1 to 4
# assay.setup: plain residues with an end cap or a label only (N-terminal biotin on a linker: ahx)
metric.name: pKd
No unit in the answer, please; the number alone is enough.

Please review the entries below; each comes with its answer.
| binder | pKd |
| --- | --- |
| QNTDDVQTSF [ACE2, Q9BYF1] | 3.76 |
| APSRKLNTEI [TIAM1, Q13009] | 3.72 |
| QPRTWLQSPV [RTKN, Q9BST9] | 4.04 |
| HTHSYIETHV [CNKSR2, Q8WXI2] | 5.04 |

Attention now shifts to the item below.
Exercise: Quick one: pKd of QDEKVKESYV [ABCA1, O95477] ?
Key: 4.92
